Hello, the source for this data is paper PMC10397247, in case you need it.

Molecular target: T1, 4H780-bN
T1 chain: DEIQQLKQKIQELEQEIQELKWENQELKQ
Test: two-hybrid library CCNG1;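 also: natural log of median RNA to DNA barcode read ratio; higher means stronger binding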
Under this convention, Met denotes interaction score strictly below -0.4 and Not met denotes interaction score at or above -0.4.

- DKNQELEKKIEELKRKIWELEKENQELER [4H3427-bH]: Met
- DKIQQLKQEIQELKQKNQELEWEIQELEQ [4H2673-bN]: Met
- DEIQQLEQKIQELKQENQELKWEIQELKQ [4H346-bN]: Not met
- DENQQLKQKIQELEQKIQELEWKNQELEQ [4H1831-bN]: Met
- DEIQQLKQEIQELEQKNQELKWKNQELEQ [4H575-bN]: Not met
